Answer each item with its documented IC50.
tested_target: UniProt P50281
experiment_notes: Inhibition of recombinant human MMP14 (Tyr112 to Arg298 residues) expressed in Escherichia coli using Ac-Pro-Leu-Gly-S-Leu-Leu-Gly-OEt as substrate after 1 hr measured at 1 min time interval for 30 mins by microplate photometric method
Numbers only, in µM.

Here's what some known entries look like.
[
  {
    "smiles_representation": "O=C(CC[C@H](NS(=O)(=O)c1ccc([N+](=O)[O-])cc1)C(=O)O)NCc1ccccc1",
    "tested_target": "UniProt P50281",
    "IC50, µM": 109
  },
  {
    "smiles_representation": "NC(=O)CC[C@H](NS(=O)(=O)c1ccc([N+](=O)[O-])cc1)C(=O)O",
    "tested_target": "UniProt P50281",
    "IC50, µM": 76.3
  },
  {
    "smiles_representation": "CCNC(=O)CC[C@H](NS(=O)(=O)c1ccc([N+](=O)[O-])cc1)C(=O)O",
    "tested_target": "UniProt P50281",
    "IC50, µM": 87.1
  },
  {
    "smiles_representation": "CCCCCNC(=O)CC[C@H](NS(=O)(=O)c1ccc([N+](=O)[O-])cc1)C(=O)O",
    "tested_target": "UniProt P50281",
    "IC50, µM": 436
  },
  {
    "smiles_representation": "CCCCNC(=O)CC[C@H](NS(=O)(=O)c1ccc([N+](=O)[O-])cc1)C(=O)O",
    "tested_target": "UniProt P50281",
    "IC50, µM": 111
  }
]

Hello, I would appreciate it if you could give IC50 for each entry below.
1. CC(C)CNC(=O)CC[C@H](NS(=O)(=O)c1ccc([N+](=O)[O-])cc1)C(=O)O
2. CC(C)NC(=O)CC[C@H](NS(=O)(=O)c1ccc([N+](=O)[O-])cc1)C(=O)O

Given back:
1. 309
2. 301

====

tested_target: Macrophage metalloelastase (Homo sapiens)
Sequence (P39900 whole entry): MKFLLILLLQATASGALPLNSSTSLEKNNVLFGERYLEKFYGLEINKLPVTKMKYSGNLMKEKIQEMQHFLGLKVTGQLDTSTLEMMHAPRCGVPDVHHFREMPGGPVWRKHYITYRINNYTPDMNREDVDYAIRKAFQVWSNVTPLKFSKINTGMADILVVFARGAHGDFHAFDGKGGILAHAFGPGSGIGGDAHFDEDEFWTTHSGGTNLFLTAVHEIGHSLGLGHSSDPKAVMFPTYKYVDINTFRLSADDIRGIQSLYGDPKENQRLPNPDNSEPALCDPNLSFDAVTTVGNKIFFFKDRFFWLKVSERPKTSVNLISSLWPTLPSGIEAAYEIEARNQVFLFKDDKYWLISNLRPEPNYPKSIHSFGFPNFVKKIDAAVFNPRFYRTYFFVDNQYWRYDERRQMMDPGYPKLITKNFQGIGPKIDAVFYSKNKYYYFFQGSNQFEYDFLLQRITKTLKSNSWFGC
experiment_notes: Inhibition of recombinant human MMP12 (Phe99 to Leu271 residues) expressed in Escherichia coli using Ac-Pro-Leu-Gly-S-Leu-Leu-Gly-OEt as substrate after 1 hr measured at 1 min time interval for 30 mins by microplate photometric method
Assignment: determine reported pIC50 for the given compounds.
One number for each entry, as −log10 of the molar value.

I have 4 compounds here; please give me pIC50 for each one.
1. CCCCNC(=O)CC[C@H](NS(=O)(=O)c1ccc([N+](=O)[O-])cc1)C(=O)O
2. CCCCCNC(=O)CC[C@H](NS(=O)(=O)c1ccc([N+](=O)[O-])cc1)C(=O)O
3. CCNC(=O)CC[C@H](NS(=O)(=O)c1ccc([N+](=O)[O-])cc1)C(=O)O
4. NC(=O)CC[C@H](NS(=O)(=O)c1ccc([N+](=O)[O-])cc1)C(=O)O

Given back:
1: 3.70; 2: 3.31; 3: 3.96; 4: 4.00

Hi! Can you tell me pIC50 for each of these compounds?
1. CC(C)NC(=O)CC[C@H](NS(=O)(=O)c1ccc([N+](=O)[O-])cc1)C(=O)O
2. O=C(CC[C@H](NS(=O)(=O)c1ccc([N+](=O)[O-])cc1)C(=O)O)NCc1ccccc1

Given back:
[3.31, 4.02]
